Cited source: PubChem BioAssay AID330

# T/C per record follows
# System: P388 leukemia ip, CD2F1 mice, survival T/C
# Protocol Notes: NCI In Vivo Anticancer Drug Screen. Data for tumor model P388 Leukemia (intraperitoneal) in CD2F1 (CDF1) mice
# Experimental Setup: endpoint: median survival time; dose: 100.0 mg/kg/injection; schedule: Q01DX001 (ip); vehicle: Klucel (hydroxypropylcellulose) (HPC); higher = longer survival
Toxic doses and inconclusive results are not listed.

// known answers, use as guide
| Compound | T/C |
| --- | --- |
| CC(=O)c1cc2c(cc1I)OCO2 | 101 % of control |
| CC(=O)NC(=S)Nc1ccccc1 | 103 % of control |
| Cc1nc(-c2ccccc2)nc2c1nc(Cc1ccccc1)n2Nc1ccccc1 | 87 % of control |
| CCN(CC)CCOc1ccc(C2N3Cc4ccccc4CN2c2ccccc23)cc1 | 99 % of control |
| O=Cc1c(Cl)n(C(=O)c2ccc(F)cc2)c2ccccc12 | 97 % of control |

Query string: Could you tell me which T/C is on file for CC1(C)CC(OP(=S)(N2CC2)N2CC2)CC(C)(C)N1O ?
Result string: 160 % of control

Query string: Next compound up: CC(C)NC1CC2CCCCC2CC1c1ccccc1 (configuration not stated)
Result string: 93 % of control

----------
# T/C per record follows
# Test system: P388 leukemia ip, CD2F1 mice, survival T/C
# Protocol Notes: NCI In Vivo Anticancer Drug Screen. Data for tumor model P388 Leukemia (intraperitoneal) in CD2F1 (CDF1) mice
# Experimental Setup: endpoint: median survival time; dose: 15.0 mg/kg/injection; schedule: Q01DX005 (ip); vehicle: saline with Tween-80; higher = longer survival
# Description: The antitumor activity of compounds was measured in mice bearing transplantable tumors. Survival or tumor size were measured and the results are expressed as the measurement made in the treated group (T) divided by the measurement made in the vehicle treated control group (C). The tumor model used in this assay is P388 Leukemia (intraperitoneal) in CD2F1 (CDF1) mice
Inconclusive results and toxic doses are left out.

Query string: Could you tell me which T/C is on file for O=C(O)c1cccnc1C(=O)Nc1cccc2ccccc12 ?
Result string: 102 % of control

Query string: Next molecule up: COc1cc2c(cc1OC)C13CCN4CC5=CCOC6CC(=O)N2C1C6C5CC43 (stereo not drawn)
Result string: 97 % of control

Query string: Next molecule up: COc1ccc([N+](=O)[O-])cc1NC(=O)c1ccc2c(c1)C(=O)OC2=O
Result string: 87 % of control

----------
# Tested on: P388 leukemia ip, CD2F1 mice, survival T/C
# Protocol Notes: NCI In Vivo Anticancer Drug Screen. Data for tumor model P388 Leukemia (intraperitoneal) in CD2F1 (CDF1) mice
# Experimental Setup: endpoint: median survival time; dose: 100.0 mg/kg/injection; schedule: Q01DX005 (ip); vehicle: saline with Tween-80; higher = longer survival
Inconclusive results and toxic doses are left out.
# T/C per record follows

// known answers, use as guide
| Compound | T/C |
| --- | --- |
| O=C1c2ccccc2-c2cc(Br)c(N=Cc3c[nH]c4ccccc34)cc21 | 95 % of control |
| COc1cc(C(CC(=O)O)CC(=O)O)cc(OC)c1OC | 95 % of control |
| Cc1noc(NS(=O)(=O)c2ccc(N=c3c4ccccc4n(-c4ccccc4)c4ccccc34)cc2)c1C | 100 % of control |
| CCCCNC(=O)C(C)OC(C)=O (centres undefined) | 99 % of control |
| O=C1C2CC3OC3CC2C(=O)N1CCN1C(=O)C2CC3OC3CC2C1=O (centres undefined) | 104 % of control |

Here is another compound to look at.
Query string: Could you tell me which T/C is on file for COc1ccc2c(c1)CC/C(=C\C1(Sc3ccccc3)CC1)C2O (centres undefined) ?
Result string: 102 % of control

----------
# Test system: P388 leukemia ip, CD2F1 mice, survival T/C
# Protocol Notes: NCI In Vivo Anticancer Drug Screen. Data for tumor model P388 Leukemia (intraperitoneal) in CD2F1 (CDF1) mice
# Experimental Setup: endpoint: median survival time; dose: 120.0 mg/kg/injection; schedule: Q01DX005 (ip); vehicle: saline with Tween-80; higher = longer survival
Inconclusive results and toxic doses are left out.
Measurement Kind: T/C

// known answers, use as guide
| Compound | T/C |
| --- | --- |
| CN(C)CCN1C(=O)c2c(c3cccn3c3c2cnn3-c2ccccc2)C1=O | 102 % of control |
| CCOc1c(Br)cc(/C=C(\C)[N+](=O)[O-])cc1OC | 106 % of control |
| N#Cc1ccccc1NC(=O)Nc1ccc(Cl)cc1Cl | 88 % of control |
| COc1ccc(-c2nn(-c3ccccc3)cc2Oc2ccccc2O)cc1 | 102 % of control |
| COc1ccc(C(=O)CCc2c[nH]c3ccccc23)c(O)c1 | 112 % of control |

Query string: Could you tell me which T/C is on file for Cc1ccccc1NC(=O)C1C(=O)N(c2ccccc2C)C(=O)/C1=N/O (configuration not stated) ?
Result string: 97 % of control

Query string: Next compound up: CC(C)(C)OC1COCCO1 (configuration not stated)
Result string: 99 % of control

Query string: Next compound up: CC(C)C(NC(=O)C(=O)c1c[nH]c2ccc(Cl)cc12)C(=O)O (configuration not stated)
Result string: 91 % of control

----------
# T/C per record follows
# Test system: P388 leukemia ip, CD2F1 mice, survival T/C
# Protocol Notes: NCI In Vivo Anticancer Drug Screen. Data for tumor model P388 Leukemia (intraperitoneal) in CD2F1 (CDF1) mice
# Experimental Setup: endpoint: median survival time; dose: 30.0 mg/kg/injection; schedule: Q01DX005 (ip); vehicle: saline with Tween-80; higher = longer survival
Toxic doses and inconclusive results are not listed.

Query string: Return T/C measured with P388 leukemia ip, CD2F1 mice, survival T/C given this compound: COc1cc2c(cc1OC)C13CCN4CC5=CCOC6CC(=O)N2C1C6C5CC43 (stereo not given)
Result string: 100 % of control

Query string: Next compound up: C/C(=N\N1CN(C(C)C(=O)O)P(Nc2ncn[nH]2)N=C1N)c1cccs1 (stereo not given)
Result string: 106 % of control

Query string: Next compound up: CN1CC(=O)[O][Sn]([CH3])([CH3])[O]C(=O)C1
Result string: 116 % of control

Query string: Next compound up: CCOC(=O)C1=C(C(=O)c2ccc(OC)cc2)C(c2cccc([N+](=O)[O-])c2)C(C(=O)c2ccc(OC)cc2)=C(C(=O)OCC)N1
Result string: 93 % of control

Query string: Next compound up: COc1cc(C)c(/C(=N/O)n2nnc(-c3ccccc3)n2)c(C)c1
Result string: 100 % of control

----------
# T/C per record follows
# Tested on: P388 leukemia ip, CD2F1 mice, survival T/C
# Protocol Notes: NCI In Vivo Anticancer Drug Screen. Data for tumor model P388 Leukemia (intraperitoneal) in CD2F1 (CDF1) mice
# Experimental Setup: endpoint: median survival time; dose: 50.0 mg/kg/injection; schedule: Q01DX005 (ip); vehicle: Klucel (hydroxypropylcellulose) (HPC); higher = longer survival
Toxic doses and inconclusive results are not listed. Square brackets hold non-standard residues; d marks the D form. Peptide text beside a SMILES is read from it. * marks the point of attachment. ξ: configuration not given here. Cbz = O=C(OCc1ccccc1)*; ξNva = CCCC(N)C(=O)O

// known answers, use as guide
| Compound | T/C |
| --- | --- |
| COc1cc(/C=N/NC(=O)c2ccc(NC(C)=O)cc2)ccc1O | 90 % of control |
| CCN(C)N=Nc1ccc(C(N)=O)cc1 | 95 % of control |
| CC1=CC(=O)C2OC(=O)CC3C=CCC1C32C (centres undefined) | 103 % of control |
| Cc1ccc(S(=O)(=O)C(=S)SCc2ccccc2)cc1 | 106 % of control |
| CN1C(=O)OC(c2ccc(Cl)cc2)C1=O (centres undefined) | 100 % of control |
| CCCC(NC(=O)CNC(=O)OCc1ccccc1)C(=O)O (stereo not drawn) (Cbz-Gly-[ξNva]-OH) | 104 % of control |
| CC(C)c1c(O)c(O)c2c(c1O)C(=O)C(O)=C1C(C)(C)CCC[C@@]12C | 102 % of control |
| O=S1(=O)c2cccc(c2)NC(=S)/C([n+]2ccccc2)=C(/[O-])c2ccc(cc2)CC2CCCCN21 (centres undefined) | 94 % of control |

Query string: Could you tell me which T/C is on file for O=C(C(Cl)Cl)N1CCN(C(=O)C(Cl)Cl)CC1 ?
Result string: 102 % of control

----------
# T/C per record follows
# Test system: P388 leukemia ip, CD2F1 mice, survival T/C
# Protocol Notes: NCI In Vivo Anticancer Drug Screen. Data for tumor model P388 Leukemia (intraperitoneal) in CD2F1 (CDF1) mice
# Experimental Setup: endpoint: median survival time; dose: 50.0 mg/kg/injection; schedule: Q01DX005 (ip); vehicle: saline; higher = longer survival
Toxic doses and inconclusive results are not listed.

// known answers, use as guide
| Molecule | Measurement Kind | Result |
| --- | --- | --- |
| O=C(O)C(O)C(O)C(OC1OC(CO)C(O)C(O)C1O)C(O)CO (centres undefined) | T/C | 105 % of control |
| CC1CCC2N(C1)CC1C3(O)CC45OC6(O)C(O)CCC4(C)C6CCC5C3(O)CC(O)C1(O)C2(C)O (centres undefined) | T/C | 109 % of control |
| CCCNC(=O)N1C2C3CCC(C)(OC3(C)C)C21 (centres undefined) | T/C | 106 % of control |
| NCCCO[C@H]1CO[C@H]2[C@@H]1OC[C@H]2OCCCN | T/C | 100 % of control |

Query string: Could you tell me which T/C is on file for CCCCCCOC(=O)c1ccccc1OP(=O)(N(C)C)N(C)C ?
Result string: 98 % of control

Query string: Next molecule up: CC1(C)SSCC1=O
Result string: 104 % of control

Query string: Next molecule up: CN(C)CCNC1c2ccccc2CCc2ccccc21
Result string: 104 % of control

Query string: Next molecule up: CC(C)C(N)C(=O)NC(C(=O)O)C(C)C (centres undefined)
Result string: 98 % of control

Query string: Next molecule up: CC(=O)c1cc(CN(C)C)c(O)c(CN(C)C)c1
Result string: 101 % of control

Query string: Next molecule up: CC(=O)C(N)CC(C)C (centres undefined)
Result string: 98 % of control

Query string: Next molecule up: CCOC(=O)Nc1nc2ccccc2n1CN1CCN(Cn2c(NC(=O)OCC)nc3ccccc32)CC1
Result string: 111 % of control

Query string: Next molecule up: CN1CCCC1=NCCN=C1CCCN1C
Result string: 117 % of control

Query string: Next molecule up: NCC(N)CCC(=O)O (centres undefined)
Result string: 99 % of control

Query string: Next molecule up: CCN(CC)C(C)C(=O)c1ccc2cc(Br)c3ccccc3c2c1 (centres undefined)
Result string: 109 % of control
